Assay: pH solubility
Type: physicochemical
Settings: aqueous buffer; pH 7; OD 250 nm
test.readout: solubility (µg/mL)

COCCN[C@H]1CS(=O)(=O)C[C@@H]1S(=O)(=O)c1ccc(Cl)cc1: 190

----------
Molecular target: NR2F6 (Homo sapiens, UniProt P10588)
Construct: expressed in transfected cells; also transient transfection
Sequence (P10588 whole entry): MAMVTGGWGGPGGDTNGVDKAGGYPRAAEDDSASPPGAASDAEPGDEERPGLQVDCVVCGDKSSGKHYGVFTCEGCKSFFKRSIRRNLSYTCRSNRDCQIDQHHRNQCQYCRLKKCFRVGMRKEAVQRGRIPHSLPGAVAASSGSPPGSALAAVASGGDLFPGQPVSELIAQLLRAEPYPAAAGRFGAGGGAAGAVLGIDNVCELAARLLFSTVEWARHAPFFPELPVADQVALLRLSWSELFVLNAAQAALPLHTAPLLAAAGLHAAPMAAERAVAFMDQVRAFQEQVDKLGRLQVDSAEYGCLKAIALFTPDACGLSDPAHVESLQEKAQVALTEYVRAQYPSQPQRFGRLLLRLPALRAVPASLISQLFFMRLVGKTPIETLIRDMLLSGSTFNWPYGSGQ
Assay: NR2F6 agonist screening, Firefly signal cmpd/DMSO
Format: cell-based
Conditions: first set screening, 10 μM, repeat 1
# Lookup of reported Firefly, cmpd/DMSO repeat 1 keyed by entry
test.readout: Firefly, cmpd/DMSO repeat 1

CCc1cccc(Nc2cnn(-c3nc4ccccc4s3)c(=O)c2Cl)c1 [Compound C7]: 2.1
CCn1c2c(c(=O)[nH]c1=O)C(c1ccc(C(C)C)cc1)C1=C(N2)c2ccccc2C1=O (stereo not shown) [Compound 21]: 2.4
CCc1cc(C(=O)Nc2ccn(Cc3ccc(C)cc3)n2)no1 [Compound C6]: 2.6
COc1ccc(-c2cc(C(F)(F)F)nc(S(=O)(=O)CCCC(=O)Nc3sc4c(c3C(N)=O)CCCC4)n2)cc1OC [Compound C2]: 2.7

----------
Molecular target: NR2F6 (Homo sapiens, UniProt P10588)
Construct: expressed in transfected cells; also transient transfection
Assay: NR2F6 agonist screening, Firefly signal cmpd/DMSO
Type: cell-based
Settings: 10 uM; clone F4
Firefly F4, cmpd/DMSO (mean): recorded values
test.readout: Firefly F4, cmpd/DMSO (mean)

CCCCCCNc1nc(OC)nc(N2CCn3c(cccc3=O)C2)n1 [Compound 41]: 0.9
CCCCCCNc1nc(OCC)nc(N2CCn3c(cccc3=O)C2)n1 [Compound 40]: 1.0
Cc1cc(C)nc(Nc2nc(-c3ccccc3)c(CC(=O)O)s2)n1 [Compound 29]: 1.4

----------
Experiment: PK in rat plasma
Type: in vivo
Settings: Table 38; IV plasma, 1.13 mg/kg
test.readout: K el (h⁻¹)

COCCN[C@H]1CS(=O)(=O)C[C@@H]1S(=O)(=O)c1ccc(Cl)cc1: 2.11

----------
Target: NR2F6 (Homo sapiens)
Construct: expressed in transfected cells; also transient transfection
Assay: NR2F6 agonist screening, Firefly signal cmpd/DMSO
Type: cell-based
Conditions: F4; 1% FBS; 10 uM
test.readout: Firefly, F4, 1% FBS, cmpd/DMSO (mean)

O=S1(=O)C[C@H](NCc2ccco2)[C@@H](S(=O)(=O)c2cccs2)C1 [Compound D135]: 1.1
COCCN[C@H]1CS(=O)(=O)C[C@@H]1S(=O)(=O)c1ccc(Cl)cc1 [Compound D136]: 2.4
O=S1(=O)C[C@H](NC2CCCCC2)[C@@H](S(=O)(=O)c2ccccc2)C1 [Compound D111]: 1.6
C[C@@H]1C[C@H](C)CN([C@H]2CS(=O)(=O)C[C@@H]2S(=O)(=O)c2cccs2)C1 [Compound D109]: 5.5

----------
Experiment: PK in mice plasma
Assay type: in vivo
Conditions: mouse; Table 41; IV plasma, 1.12 mg/kg
test.readout: MRT inf (min)

COCCN[C@H]1CS(=O)(=O)C[C@@H]1S(=O)(=O)c1ccc(Cl)cc1: 16.2

----------
Molecular target: NR2F6 (Homo sapiens, UniProt P10588)
Construct: expressed in transfected cells; also transient transfection
Assay: NR2F6 agonist screening, Firefly signal cmpd/DMSO
Type: cell-based
Conditions: C11 analogs follow set (Tables 2-10), repeat 2
Mark YES for Firefly, cmpd/DMSO repeat 2 under 5, NO if at or over.

Cc1ccccc1NC(=O)c1ccc2oc(=O)c(S(=O)(=O)c3ccc(F)cc3)cc2c1 [Compound C160]: NO
O=c1oc2ccc(F)cc2cc1S(=O)(=O)c1ccc(Br)cc1 [Compound C215]: NO
O=c1oc2ccc(Br)cc2cc1S(=O)(=O)c1cc(F)cc(F)c1 [Compound C193]: YES
Cc1cc(C)cc(NC(=O)c2ccc3oc(=O)c(S(=O)(=O)c4ccccc4)cc3c2)c1 [Compound C174]: NO
COc1ccc(CNC(=O)c2ccc3oc(=O)c(S(=O)(=O)c4ccc(F)cc4)cc3c2)cc1 [Compound C117]: NO
O=c1oc2ccccc2cc1S(=O)(=O)c1ccc(F)c(Cl)c1 [Compound C107]: NO
O=C(NCc1ccc(F)cc1)c1ccc2oc(=O)c(S(=O)(=O)c3ccc(F)cc3)cc2c1 [Compound C118]: NO
Cc1ccc(S(=O)(=O)c2cc3cc(C(=O)NCCc4ccccc4)ccc3oc2=O)cc1 [Compound C112]: NO
COc1ccc(NC(=O)c2ccc3oc(=O)c(S(=O)(=O)c4ccc(Cl)cc4)cc3c2)cc1OC [Compound C122]: NO
O=c1oc2ccccc2cc1S(=O)(=O)c1ccc(Cl)c(Cl)c1 [Compound C106]: YES
COc1ccc2cc(S(=O)(=O)c3cccc(C#N)c3)c(=O)oc2c1 [Compound C263]: YES
O=C(NCCc1ccccc1)c1ccc2oc(=O)c(S(=O)(=O)c3ccc(F)cc3)cc2c1 [Compound C113]: NO
O=C(Nc1ccc(Cl)cc1)c1ccc2oc(=O)c(S(=O)(=O)c3ccc(F)cc3)cc2c1 [Compound C129]: YES
Cc1ccc(S(=O)(=O)c2cc3cc([N+](=O)[O-])ccc3oc2=O)cc1 [Compound C211]: NO
COc1ccc2cc(S(=O)(=O)c3ccc(OC)c(OC)c3)c(=O)oc2c1 [Compound C274]: YES
O=c1oc2ccc(Br)cc2cc1S(=O)(=O)c1cccc(F)c1 [Compound C183]: YES
